Test system: Tov-21-G
protocol: Primary qHTS to identify gynecologic anti-cancer compounds using libraries of approved drugs and bioactive compounds (AID 1345084); also: % is scaled to controls: 0 for no effect and ±100 for the full control effect; nearly all actives have a fitted effect of over 55% in size
condition.details: Gynecologic cancer cell panel viability, ATPlite luminescence, 48 h; series mostly up to 57.5 µM
Inconclusive results are not listed. Calls of active or inactive are those of the source. Calls follow the shape of the dose curve; as a rule, active = well fitted cell-killing curve with a large enough effect; inconclusive = small, poorly fitted or top-dose-only effect, or effect the other way; inactive = flat fitted curve, though single readings scatter. Where a SMILES comes first, the peptide text is derived from it. The star is where a group is joined. Hexanoyl = CCCCCC(=O)*
measurement.label: activity change, negative = cytotoxicity

# molecule, experimental.value
rows = [
    ("CCC(=O)N1CCc2cc(OC)c(O)cc2C1", "inactive"),
    ("O=c1[nH]ccc2nc(-c3ccc(CN4CCC(c5nc(-c6ccccn6)n[nH]5)CC4)cc3)c(-c3ccccc3)cc12", "inactive"),
    ("C=C1[C@@H]2CC[C@@]3(C)[C@H](c4ccoc4)OC(=O)C[C@]13O[C@H]1CC(=O)C(C)(C)[C@H](C(O)C(=O)OC)[C@]12C (stereo partly drawn)", "inactive"),
    ("CC(C)c1ccc2c(c1)CCC1[C@](C)(C(=O)O)CCC[C@]21C (stereo partly drawn)", "inactive"),
    ("C=C1C[C@]23C[C@@]1(O)CC[C@H]2[C@@]12C=C[C@H](O)[C@@](C)(C(=O)O1)[C@H]2[C@@H]3C(=O)O", "inactive"),
    ("CC1CC2(O)OC(=O)C3=C2C(CCC3)[C@@]12C[C@@H](c1ccoc1)OC2=O (stereo partly drawn)", "inactive"),
    ("Cc1ccc(Nc2nnc(-c3ccc([N+](=O)[O-])cc3)o2)cc1Cl", "inactive"),
    ("O=C(Nc1ccn(Cc2c(F)cccc2C(F)(F)F)n1)c1c(F)cccc1F", "10.6% [at 11.6 µM] (inactive)"),
    ("C/C=C(/C)C(=O)OC1C(OC(C)=O)C23C(O)OC4(CCC5C6(C)CCC(OC7OC(C(=O)O)C(O)C(OC8OC(CO)C(O)C(O)C8OC8OC(C)C(O)C(O)C8OC8OCC(O)C(O)C8O)C7OC7OC(CO)C(O)C(O)C7O)C(C)(C)C6CCC5(C)C4(C)CC2OC(C)=O)C3CC1(C)C (stereo not drawn)", "-4.78% [at 6.55 µM] (inactive)"),
    ("COc1cc(/C=C/C(=O)OC[C@H]2O[C@@H](OC3CC(C)=C(C(=O)O)C(C)(C)C3)[C@H](O)[C@@H](O)[C@@H]2O)cc(OC)c1O (stereo partly drawn)", "inactive"),
    ("C[C@@H]1O[C@@H](O[C@H]2[C@H](O[C@H]3[C@H](O[C@H]4CC[C@@]5(C)C(CC[C@]6(C)C5CC=C5[C@@H]7CC(C)(C)C[C@@H](O)[C@]7(C)CC[C@]56C)C4(C)C)O[C@H](C(=O)O)[C@@H](O)[C@@H]3O)O[C@H](C(=O)O)[C@H](O)[C@@H]2O)[C@H](O)[C@H](O)[C@H]1O (stereo partly drawn)", "9.44% [at 11.6 µM] (inactive)"),
    ("C/C=C/C=C/C=C/C(=O)OC1C=C2C(O)OC(=O)[C@]2(O)[C@@]2(C)CCCC(C)(C)[C@H]12 (stereo partly drawn)", "inactive"),
    ("Nc1ncnc2c1ncn2[C@H]1O[C@@H](C(=O)N2CCN(CC(=O)Nc3cccc4c3CNC4=O)CC2)[C@H](O)[C@@H]1O", "inactive"),
    ("COC(=O)C(Cc1ccccc1)NC(=O)c1ccccc1 (stereo not drawn)", "inactive"),
    ("C/C=C1/[C@H](O[C@@H]2O[C@H](CO)[C@@H](O)[C@H](O)[C@H]2O)OC=C(C(=O)OC)[C@H]1CC(=O)OCCc1ccc(OC(=O)C[C@@H]2C(C(=O)OC)=CO[C@@H](O[C@@H]3O[C@H](CO)[C@@H](O)[C@H](O)[C@H]3O)/C2=C/C)cc1", "4.28% [at 11.6 µM] (inactive)"),
    ("CCCCCC(=O)N1CCC[C@H]1C(=O)N[C@@H](Cc1ccc(O)cc1)C(=O)OC (Hexanoyl-Pro-Tyr-OMe)", "inactive"),
    ("COC(=O)[C@@H](NC(=O)[C@H](CC(C)C)NC(=O)N(Cc1ccccc1)C[C@@H](O)[C@H](Cc1ccccc1)NC(=O)OC(C)(C)C)C(C)C", "-1.16% [at 11.6 µM] (inactive)"),
    ("COC(=O)C1=CO[C@@H](O[C@@H]2O[C@H](CO)[C@@H](O)[C@H](O)[C@H]2O)[C@H]2[C@@H]1[C@H](O)C[C@]2(C)O", "inactive"),
    ("CC(=C\\C(C)O)/C=C(\\C)C(=O)CC1CC(CC(N)=O)CC(=O)O1 (stereo not drawn)", "inactive"),
    ("C[C@H]1[C@@H](O)[C@H](O)C2[C@]3(C)C([C@@H](O)[C@H]4OC(=O)[C@@H]1[C@@]24C)[C@](C)(O)C=C[C@H]3O[C@@H]1O[C@H](CO)[C@@H](O)[C@H](O)[C@H]1O (stereo partly drawn)", "inactive"),
    ("C=C1C2(C)CC3C4(C)C=CC(=O)OC(C)(C)C4CCC3(C)C1(C(=O)OC)C(=O)C(C)(O)C2=O (stereo not drawn)", "inactive"),
    ("CC(C)C(NC(=O)c1ccc(O)cc1)C(=O)N1CCCC1C(=O)Nc1c(O)cccc1C(=O)O (stereo not drawn)", "inactive"),
    ("COC(=O)C1=CO[C@@H](O[C@@H]2O[C@H](CO)[C@@H](O)[C@H](O)[C@H]2O)C2C1CC(O)C2C (stereo partly drawn)", "inactive"),
    ("COc1cccc(OC)c1-c1ccc(C[C@H](NC(=O)c2c(Cl)cccc2Cl)C(=O)O)cc1", "inactive"),
    ("Cc1noc2c1-c1ccccc1C(c1ccc(Cl)cc1)=N[C@H]2CC(N)=O", "inactive"),
    ("C=CC(C)(O)CC/C=C(\\C)C(=O)O[C@@H]1[C@@H](O)[C@H](OC(C)(C=C)CC/C=C(\\C)C(=O)O[C@@H]2O[C@H](CO)[C@@H](O)[C@H](O)[C@H]2O)O[C@H](CO)[C@H]1OC(=O)/C(C)=C/CCC(C)(O)C=C (stereo partly drawn)", "0.188% [at 11.6 µM] (inactive)"),
    ("C=C(C)C1Cc2c(ccc3c2OCC(c2ccc(O)cc2O)C3)O1 (stereo not drawn)", "inactive"),
    ("CC(=O)OC12CC(C)C(O)C1/C=C(/COC1OC(CO)C(O)C(O)C1O)CCC1C(/C=C(\\C)C2=O)C1(C)C (stereo not drawn)", "inactive"),
]
